biological target: human TLR8 (hTLR8) (Homo sapiens, UniProt Q9NR97); assay: Human TLR8 agonist activity assay (measured in a similar manner); details: HEK-Blue TLR cells, SEAP reporter, measured in a similar manner to TLR7; some values average of multiple measurements
measuredParameter: EC50 (µM)

Known EC50 results, listed for orientation:
>>> df
                                   molecule  measuredparameter  reportedresult
0  CCCCN(CCO)c1nc(N)nc2cn(Cc3ncc(CNC4CCC4)cc3OC)nc12               EC50            1.77
1  CCCCN(CCO)c1nc(N)nc2cn(Cc3ccc(CNC4CCOC(C)C4)cc3OC)nc12 (stereo not shown) [Compound 125]               EC50            2.03
2  CCCCN(CCO)c1nc(N)nc2cn(Cc3c(F)cc(N4CCC(NC(C)C)CC4)cc3OC)nc12               EC50            1.83
3  CCCCN(CCO)c1nc(N)nc2cn(Cc3ncc(CNC(C)(C)C)cc3OC)nc12               EC50            3.14
4  CCCCN(CCO)c1nc(N)nc2cn(Cc3c(F)cc(N4CCC(N[C@@H]5CCCOC5)CC4)cc3F)nc12               EC50            1.86
5  CCCCN(CCO)c1nc(N)nc2cn(Cc3c(F)cc(C4CCN(C)CC4)cc3OC)nc12               EC50           0.538
6  CCCCN(CCO)c1nc(N)nc2cn(Cc3c(F)cc(CNCC(C)(C)O)cc3OC)nc12               EC50            1.43
7  CCCCN(CCO)c1nc(N)nc2cn(Cc3ccc(CN[C@H]4CCOC4)cc3OC)nc12               EC50            1.07

[P] CCCCN(CCO)c1nc(N)nc2cn(Cc3ccc(CN4CCCC4)cc3C(F)F)nc12
[Q] CCCCN(CCO)c1nc(N)nc2cn(Cc3ccc(CNC4CCCOC4)cc3OC)nc12 (stereo not shown) [Compound 104]
[R] CCCCN(CCO)c1nc(N)nc2cn(Cc3ccc(CNC4CCS(=O)(=O)CC4)c4scnc34)nc12
Let's sort these by EC50, smallest first. Go ahead? Returns: the labels listed in the requested order.
R, P, Q

[A] CCCCN(CCO)c1nc(N)nc2cn(Cc3cccc4c3OCCN4C(=O)CN(C)C)nc12
[B] CCCCN(CCO)c1nc(N)nc2cn(Cc3ccc(CNC4CCOC(C)C4)cc3OC)nc12 (single isomer, unassigned) [Compound 121]
Lab note: check whether A or B shows the higher recorded EC50. // respond with label for picked entry
A
(A: 2.41 µM, B: 0.564 µM)

[P] CCCCN(CCO)c1nc(N)nc2cn(Cc3c(OC)cc(CNC(C)C)cc3OC)nc12
[Q] CCCCN(CCO)c1nc(N)nc2cn(Cc3c(F)cc(C4CCN(C(C)C)CC4)cc3OC)nc12
Pick one: P or Q . Which one has the lower reported EC50? Field: selected label. Fill in the label of the entry you choose.
Q
(Q: 0.801 µM, P: 1.77 µM)

###

Molecular target: human TLR8 (hTLR8) (Homo sapiens, UniProt Q9NR97)
Sequence (Q9NR97 27-1041): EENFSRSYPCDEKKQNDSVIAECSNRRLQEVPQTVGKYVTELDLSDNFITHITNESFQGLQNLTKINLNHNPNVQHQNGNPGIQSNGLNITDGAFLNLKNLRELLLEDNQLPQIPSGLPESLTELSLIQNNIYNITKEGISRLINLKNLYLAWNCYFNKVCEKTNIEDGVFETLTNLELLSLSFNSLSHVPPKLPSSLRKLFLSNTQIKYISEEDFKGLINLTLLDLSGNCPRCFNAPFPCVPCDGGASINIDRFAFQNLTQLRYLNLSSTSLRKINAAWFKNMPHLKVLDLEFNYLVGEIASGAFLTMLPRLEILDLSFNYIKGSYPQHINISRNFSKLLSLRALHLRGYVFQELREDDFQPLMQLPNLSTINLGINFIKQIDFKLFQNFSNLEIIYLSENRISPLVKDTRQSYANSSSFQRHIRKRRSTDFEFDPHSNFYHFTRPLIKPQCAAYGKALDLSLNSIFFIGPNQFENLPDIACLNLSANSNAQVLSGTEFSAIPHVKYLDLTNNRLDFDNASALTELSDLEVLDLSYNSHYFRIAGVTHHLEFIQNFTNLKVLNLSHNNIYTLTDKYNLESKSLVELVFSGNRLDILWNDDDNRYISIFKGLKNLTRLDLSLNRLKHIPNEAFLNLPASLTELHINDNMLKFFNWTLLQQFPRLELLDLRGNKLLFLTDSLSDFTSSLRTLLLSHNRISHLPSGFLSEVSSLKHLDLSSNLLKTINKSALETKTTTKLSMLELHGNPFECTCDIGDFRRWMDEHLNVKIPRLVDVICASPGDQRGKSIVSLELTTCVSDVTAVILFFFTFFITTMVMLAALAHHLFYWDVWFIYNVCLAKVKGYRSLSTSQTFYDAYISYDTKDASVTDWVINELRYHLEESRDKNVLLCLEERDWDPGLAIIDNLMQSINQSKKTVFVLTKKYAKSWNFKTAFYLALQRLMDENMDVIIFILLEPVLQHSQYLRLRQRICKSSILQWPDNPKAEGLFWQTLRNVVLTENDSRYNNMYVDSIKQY
Assay: Human TLR8 agonist activity assay (measured in a similar manner)
Conditions: HEK-Blue TLR cells, SEAP reporter, measured in a similar manner to TLR7; some values average of multiple measurements
pEC50: −log10 of the molar value.
measuredParameter: pEC50

Sample answers from the record:
                                   molecule  reportedresult
0  CCCCN(CCO)c1nc(N)nc2cn(Cc3ccc(CNC4CCOCC4)c4nccnc34)nc12 [Compound 206]            5.93
1  CCCCN(CCO)c1nc(N)nc2cn(Cc3ccc(CNC4CCC4)c4cn[nH]c34)nc12 [Compound 207]            5.93
2  CCCCN(c1nc(N)nc2cn(Cc3ccc(CN[C@@H]4CCOC4)cc3OC)nc12)C(C)CO (stereo partly shown) [Compound 68]            5.88

[I] CCCCN(CCO)c1nc(N)nc2cn(Cc3ccc(CN[C@@H]4CCOC4)n4ccnc34)nc12 [Compound 187]
[II] CCCCN(CCO)c1nc(N)nc2cn(Cc3ccc(CN[C@H]4C[C@H](OC)C4)n4ncnc34)nc12 [Compound 174]
Rank I against II by their pEC50 values and give the higher one. Write the label of whichever entry you select.
I
(I: 6.07, II: 5.84)

[P] CCCCCN(CCO)c1nc(N)nc2cn(Cc3ccc(CNC4CCC4)cc3OC)nc12 [Compound 44]
[Q] CCCCN(CCO)c1nc(N)nc2cn(Cc3ccc(CN4CCN(CCO)CC4)cc3OC)nc12 [Compound 19]
Which shows the larger pEC50 value: P or Q ? // return label of chosen record
P
(P: 6.15, Q: 5.83)

###

Molecular target: human TLR8 (hTLR8) (Homo sapiens, UniProt Q9NR97)
Sequence (Q9NR97 27-1041): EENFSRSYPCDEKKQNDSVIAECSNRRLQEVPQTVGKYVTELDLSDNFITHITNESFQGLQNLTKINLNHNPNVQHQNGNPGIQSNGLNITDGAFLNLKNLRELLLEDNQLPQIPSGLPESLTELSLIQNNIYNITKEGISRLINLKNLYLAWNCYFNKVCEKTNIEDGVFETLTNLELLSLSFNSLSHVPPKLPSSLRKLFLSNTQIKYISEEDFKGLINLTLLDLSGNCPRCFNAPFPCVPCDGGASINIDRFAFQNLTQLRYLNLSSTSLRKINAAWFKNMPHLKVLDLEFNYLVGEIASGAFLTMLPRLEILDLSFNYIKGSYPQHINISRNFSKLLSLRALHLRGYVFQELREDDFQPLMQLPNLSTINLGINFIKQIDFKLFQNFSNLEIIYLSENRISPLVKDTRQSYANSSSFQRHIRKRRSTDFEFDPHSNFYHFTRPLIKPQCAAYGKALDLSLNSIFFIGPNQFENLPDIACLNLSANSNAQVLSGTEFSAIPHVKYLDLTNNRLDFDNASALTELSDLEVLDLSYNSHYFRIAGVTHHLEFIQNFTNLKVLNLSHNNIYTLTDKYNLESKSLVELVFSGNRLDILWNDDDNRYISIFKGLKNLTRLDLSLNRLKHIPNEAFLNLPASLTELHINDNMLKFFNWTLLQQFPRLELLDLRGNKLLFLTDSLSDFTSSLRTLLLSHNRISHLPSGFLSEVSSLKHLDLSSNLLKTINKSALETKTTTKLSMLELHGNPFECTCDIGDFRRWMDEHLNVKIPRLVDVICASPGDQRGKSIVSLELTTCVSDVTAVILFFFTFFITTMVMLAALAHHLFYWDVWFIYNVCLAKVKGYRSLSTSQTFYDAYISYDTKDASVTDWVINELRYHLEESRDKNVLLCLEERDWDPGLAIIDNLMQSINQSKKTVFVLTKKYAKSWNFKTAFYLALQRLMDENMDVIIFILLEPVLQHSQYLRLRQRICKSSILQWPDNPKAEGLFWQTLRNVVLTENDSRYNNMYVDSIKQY
Assay: Human TLR8 agonist activity assay (measured in a similar manner)
Settings: HEK-Blue TLR cells, SEAP reporter, measured in a similar manner to TLR7; some values average of multiple measurements
Procedure: This procedure describes a method for assaying human TLR7 (hTLR7) and human TLR8 (hTLR8) agonist activity of the compounds disclosed herein. HEK-Blue™ TLR7 cells were added to each well of a 384-well tissue-culture plate (15,000 cells per well) and incubated 16-18 h at 37° C., 5% CO2. […] SLAP levels were measured using an Envision plate reader (OD=620 nm). […] TLR8 activity was measured in a similar manner.
pEC50: −log10 of the molar value.
measuredParameter: pEC50

Would you please look over these solved cases?
In [3]: df
Out[3]:
                                   compound  reportedresult
0  CCCCN(CCO)c1nc(N)nc2cn(Cc3ccc(CNCC(C)(C)O)cc3OC)nc12            5.90
1  CCCCN(CCO)c1nc(N)nc2cn(Cc3c(F)cc(C4=CCC(N(CCO)CCO)CC4)cc3OC)nc12 (stereo not drawn)            5.56
2  CCCCN(CCO)c1nc(N)nc2cn(Cc3c(OC)cc(CNCCOC)cc3OC)nc12            5.73
3  CCCCN(CCO)c1nc(N)nc2cn(Cc3ccc(CNC4CCOCC4)c4ncsc34)nc12            5.73
4  CCCCN(CCO)c1nc(N)nc2cn(Cc3ccc(CN[C@H]4CCOC4)cc3C(F)F)nc12            5.80

[A] CCCCN(CCO)c1nc(N)nc2cn(Cc3ccc(CN[C@H]4CCN(C(C)C)C4)cc3OC)nc12
[B] CCCCN(CCO)c1nc(N)nc2cn(Cc3c(F)cc(C4CCN(C5CCOCC5)CC4)cc3OC)nc12
Of A and B , which one carries the higher reported pEC50? Please identify the chosen entry by its label.
B
